- Assay info: Liver microsomal stability
- Protocol conditions: mouse, liver microsomes
Endpoint label: half-life (h)
Reply numerically in h, unit not repeated.

Query :: Value lookup for half-life; key = O=C1c2c(O)c(=O)ccn2N(C2c3ccccc3[Se]Cc3c2ccc(F)c3F)C2COCCN12 (single isomer, unassigned) [Compound A-1-P2]
Result :: 4.77

====

- Assay info: Toxicity study, oral gavage once daily for 7 days
- Assay type: in vivo, Sprague Dawley (SD) rats
- Protocol conditions: both sexes, Sprague Dawley, rat, in vivo; oral gavage once daily for 7 days; read-out: maximum tolerated dose (MTD)
Endpoint label: MTD at 7 days

Query :: Value lookup for MTD at 7 days; key = COC(=O)OCOc1c2n(ccc1=O)N(C1c3ccccc3[Se]Cc3c1ccc(F)c3F)[C@@H]1COCCN1C2=O (stereo partly shown)
Result :: > 500 mg/kg/day
